assay: Metabolic stability in mouse liver microsomes assessed as half life at 1 uM preincubated for 10 mins followed by NADPH addition and measured after 5 to 60 mins by LC-MS/MS analysis; type: ADME, Microsome; conditions: time 15-70 min
Examples of compounds with documented half-life at 1 µM follow.

A selection of reference data follows.
Q: Complete the entry with half-life at 1 µM for Cc1[nH]c(C(=O)Nc2ccc(-c3noc(=O)[nH]3)cc2N2CCN(c3ccccc3)CC2)c(Cl)c1Cl
Ans: > 2.42 h

Q: Consider the compound Cc1[nH]c(C(=O)Nc2ccc(-c3noc(=O)[nH]3)cc2N2CCN(C(=O)OC(C)(C)C)CC2)c(Cl)c1Cl and give its recorded half-life at 1 µM.
Ans: > 2.42 h

// switching to the query compound
Q: Read off the recorded half-life at 1 µM for Cc1[nH]c(C(=O)Nc2ccc(-n3nn[nH]c3=O)cc2N2Cc3ccccc3C2)c(Cl)c1Cl
Ans: > 2.42 h

----------
Below: a set of entries, each annotated with reported IC50.
biological target: DNA gyrase (Escherichia coli, UniProt P0AES4+P0AES6); assay: Inhibition of Escherichia coli DNA gyrase by supercoiling plate assay
Reply with just the number (in nM).

Q: Provide IC50 value for the following molecule: Cc1[nH]c(C(=O)Nc2ccc(-c3noc(=O)[nH]3)cc2N2CCN(c3ccccc3)CC2)c(Cl)c1Cl
Ans: 109

Q: Tell us which IC50 value is on record for Cc1[nH]c(C(=O)Nc2ccc(-c3noc(=O)[nH]3)cc2NC2CCN(C(=O)OC(C)(C)C)CC2)c(Cl)c1Cl
Ans: 6.92

Q: Respond only with IC50 recorded for Cc1[nH]c(C(=O)Nc2ccc(-c3noc(=O)[nH]3)cc2N2CCCC2)c(Cl)c1Cl
Ans: 12.6

Q: Give reported IC50 value for Cc1[nH]c(C(=O)Nc2ccc(-n3nn[nH]c3=O)cc2N2Cc3ccccc3C2)c(Cl)c1Cl
Ans: 111

Q: Name the recorded IC50 of the molecule listed here: Cc1[nH]c(C(=O)Nc2ccc(-c3noc(=O)[nH]3)cc2N2CCC(NC(=O)OC(C)(C)C)CC2)c(Cl)c1Cl
Ans: 6.7

Q: Recall and state the measured IC50 for Cc1[nH]c(C(=O)Nc2ccc(-c3noc(=O)[nH]3)cc2N2CCOCC2)c(Cl)c1Cl .
Ans: 13

***
Q: Provide measured IC50 value, entry: Cc1[nH]c(C(=O)Nc2ccc(-n3nn[nH]c3=O)cc2N2CCN(c3ccccc3)CC2)c(Cl)c1Cl
Ans: 7.8

Q: Indicate the recorded IC50 value for this molecule: Cc1[nH]c(C(=O)Nc2ccc(-c3noc(=O)[nH]3)cc2N2CCN(C(=O)OC(C)(C)C)CC2)c(Cl)c1Cl
Ans: 13.7

Q: Using the record for Cc1[nH]c(C(=O)Nc2ccc(-c3noc(=O)[nH]3)cc2NC2CCNCC2)c(Cl)c1Cl.Cl , state its measured IC50.
Ans: 9.66

----------
Reported MIC values for the following compounds.
tested on: Enterococcus faecium; experiment: Antibacterial activity against vancomycin-resistant Enterococcus faecium ATCC 700221 assessed as inhibition of bacterial growth by broth microdilution method; type: functional

Worked cases, answers included:
Q: For Enterococcus faecium, give MIC of the listed compound: Cc1[nH]c(C(=O)Nc2ccc(-n3nn[nH]c3=O)cc2N2CCC(N)CC2)c(Cl)c1Cl.Cl
Ans: > 32 µg/mL

Q: Specify the recorded MIC for Cc1[nH]c(C(=O)Nc2ccc(-c3noc(=O)[nH]3)cc2N2CCNCC2)c(Cl)c1Cl.Cl , system: Enterococcus faecium.
Ans: > 64 µg/mL

Attention now shifts to the item below.
Q: Return reported MIC for target or system Enterococcus faecium, item Cc1[nH]c(C(=O)Nc2ccc(-c3nnn[nH]3)cc2N2CCOCC2)c(Cl)c1Cl .
Ans: > 64 µg/mL
